Cited source for all entries: patent US5411969A

- Tested on: hamster LDL
- method_notes: Ex vivo LDL lipid peroxidation assay in hamsters (Cu++ oxidation; conjugated dienes or lipid peroxides)
- measurement_parameters: 50 mg/kg/d oral, 17 days, 3.0 h
Consider the following compounds; for each one, report its lipid peroxide formation in LDL, % of Control, 3.0 h.

## Input Need lipid peroxide formation in LDL, % of Control, 3.0 h, item O=C1O[C@H]([C@@H](O)CO)C(O)=C1O [Na Ascorbate]
## Output 91 % of Control

## Input Now consider CC(C)=CCC/C(C)=C/CC/C(C)=C/CCC1(C)CCc2cc(O)c(C)c(C)c2O1 (centres unmarked) [γ-Tocotrienol] and answer again.
## Output 67 % of Control

## Input Now consider CC(C)=CCC/C(C)=C/CC/C(C)=C/CCCOc1ccc2c(c1)C(C)=CC(C)(C)N2 [Compound 4] and answer again.
## Output 31 % of Control

## Input Now consider Cc1c(C)c2c(c(C)c1O)CCC(C)(CCCC(C)CCCC(C)CCCC(C)C)O2 (stereo not drawn) [α-Tocopherol] and answer again.
## Output 36 % of Control

## Input Now consider CC(C)(Sc1cc(C(C)(C)C)c(O)c(C(C)(C)C)c1)Sc1cc(C(C)(C)C)c(O)c(C(C)(C)C)c1 [PROBUCOL] and answer again.
## Output 93 % of Control
